meta.source: the SangsterLogP compilation

assay: method code SF-HPLC, from PMID: 2608704; settings: pH 1.0
Measurement kind: logD

# count of solved cases: 5
• Cc1ccc2c(c1)NC(SCC(=O)O)=NS2(=O)=O = 0.7
• O=C(O)CSC1=NS(=O)(=O)c2ccc(C(F)(F)F)cc2N1 = 1.62
• O=C(O)CCC1=NS(=O)(=O)c2cc(Cl)c(Cl)cc2N1 = 1.5
• O=C(O)CCSC1=NS(=O)(=O)c2ccc(Cl)cc2N1 = 1.6
• O=C(O)CSC1=NS(=O)(=O)c2cc(Br)ccc2N1 = 0.92

a: O=C(O)CSC1=NS(=O)(=O)c2ccc(Cl)cc2N1
b: O=C(O)CCSC1=NS(=O)(=O)c2cc(Cl)c(Cl)cc2N1
[ask] Param metric = logD; output whichever of a , b has the minimum value. # answer = label of selected item
[reply] a
